System: Wzt-CBD (also Wzt-CBM, WztC) (Aquifex aeolicus)
Construct: N-terminal His6-TEV tag removed; E. coli C43(DE3); domain-swapped dimer
Sequence (O67181 entry or part of it): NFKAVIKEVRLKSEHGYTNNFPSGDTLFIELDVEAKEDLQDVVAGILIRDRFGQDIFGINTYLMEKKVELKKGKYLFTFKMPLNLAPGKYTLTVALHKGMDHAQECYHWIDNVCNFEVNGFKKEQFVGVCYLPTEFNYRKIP
Assay Procedure: isothermal titration calorimetry
Assay Conditions: 50 mM HEPES pH 8.0, 25 °C; 1:1 per CBD monomer; read-out: affinity

Compound	System	Kd
CO[C@H]1[C@H](O)[C@@H](CO)OC(O)[C@H]1O (stereo partly drawn) [3-O-methyl-D-mannose]	Wzt-CBD (also Wzt-CBM, WztC) (Aquifex aeolicus)	~234 µM
